Recorded values, source patent US20230025510A1.

Test system: Ba/F3-EGFR WT cells
Experiment: Cell proliferation suppression test (CellTiter-Glo, GI50), Ba/F3-EGFR WT
Assay type: cell-based
Details: Mus musculus, 72 h, 100 ng/mL EGF, 3 days, N=4
Below, each entry is listed with its recorded GI50.
# unit: nM | format: bare number

{"COMPOUND": "C=CC(=O)N1CCC(Oc2cc3c(Nc4ccc(Oc5ccn(C(=O)NC(C)(C)CF)n5)cc4F)ncnc3cc2OC)CC1 [Example 5]", "GI50, nM": 77.1}
{"COMPOUND": "CCOc1cc2ncnc(Nc3ccc(Oc4cccc(-c5nnc(C)o5)c4)cc3F)c2cc1NC(=O)/C=C/CN[C@H]1CCOC1 [Example 52]", "GI50, nM": 245}
{"COMPOUND": "COc1cc2ncnc(Nc3ccc(Oc4nn(CC(=O)NC(C)(C)C)cc4F)cc3Cl)c2cc1NC(=O)/C=C/CN1CCC(F)C1 (racemic) [Example 55]", "GI50, nM": 441}
{"COMPOUND": "C=CC(=O)N1CCC(Oc2cc3c(Nc4ccc(Oc5nc(-c6cnc(C)nc6)cs5)cc4F)ncnc3cc2OC)CC1 [Example 36]", "GI50, nM": 377}
{"COMPOUND": "C=CC(=O)N1CCC(Oc2cc3c(Nc4ccc(Oc5nc(-c6cncc(F)c6)cs5)cc4F)ncnc3cc2OC)CC1 [Example 38]", "GI50, nM": 174}

Lab note: measured GI50 of CCOc1cc2ncnc(Nc3ccc(Oc4cccc(-c5nnc(C6CC6)o5)c4)cc3F)c2cc1NC(=O)/C=C/CN(C)C [Example 51] was 104

Lab note: measured GI50 of COc1cc2ncnc(Nc3ccc(Oc4nn(CC(=O)NC(C)(C)C)cc4F)cc3F)c2cc1NC(=O)/C=C/CN1CC(OC)C1 [Example 60] was 497

Lab note: measured GI50 of C=CC(=O)N1CCC(Oc2cc3c(Nc4ccc(Oc5ccn(-c6ccc(C7CC7)nc6)n5)cc4F)ncnc3cc2OC)CC1 [Example 31] was 241

Lab note: measured GI50 of C=CC(=O)N1CCC(Oc2cc3c(Nc4ccc(Oc5ccn(-c6cnc(C7CC7)nc6)n5)cc4F)ncnc3cc2OC)CC1 [Example 10] was 212

* * *

Tested on: Ba/F3-Mock cells
Experiment: Cell proliferation suppression test (CellTiter-Glo, GI50), Ba/F3-Mock
Format: cell-based
Conditions: Mus musculus, BaF3, 72 h, 5 ng/mL IL-3, 3 days, N=4
Below, each entry is listed with its recorded GI50.
# unit: nM | format: bare number

Reference set (2 entries):
{"SMILES NOTATION": "C=CC(=O)N1CCC(Oc2cc3c(Nc4ccc(Oc5cccc(-c6nnc(C)o6)c5)cc4F)ncnc3cc2OC)CC1", "GI50 [nM]": 8220}
{"SMILES NOTATION": "C=CC(=O)N1CCC(Oc2cc3c(Nc4ccc(Oc5cccc(C(=O)NC(C)(C)C)c5)cc4F)ncnc3cc2OC)CC1", "GI50 [nM]": 7900}

Lab note: measured GI50 of `C=CC(=O)N1CCC(Oc2cc3c(Nc4ccc(Oc5ccn(-c6cnc(C)c(F)c6)n5)cc4F)ncnc3cc2OC)CC1` was 8690

* * *

Test system: Ba/F3-EGFR ins. SVD cells
Assay: Cell proliferation suppression test (CellTiter-Glo, GI50), Ba/F3-EGFR ins. SVD
Format: cell-based
Conditions: Mus musculus, 72 h, 3 days, N=4
PARAMETER: GI50 (nM)
# unit: nM | format: bare number

Reference set (3 entries):
{"COMPOUND": "C=CC(=O)N1CCC(Oc2cc3c(Nc4ccc(Oc5cccc(-c6cn(C)nn6)c5)cc4F)ncnc3cc2OC)CC1 [Example 2]", "ENDPOINT VALUE": 13.7}
{"COMPOUND": "COc1cc2ncnc(Nc3ccc(Oc4nn(CC(=O)NC(C)(C)C)cc4F)cc3Cl)c2cc1NC(=O)/C=C/CN(C)C [Example 45]", "ENDPOINT VALUE": 11.6}
{"COMPOUND": "COc1cc2ncnc(Nc3ccc(Oc4cccc(-c5nnc(C)o5)c4)cc3F)c2cc1NC(=O)/C=C/CN(C)C [Example 39]", "ENDPOINT VALUE": 58.7}

Moving on to another compound below.
Entry C=CC(=O)N1CCC(Oc2cc3c(Nc4ccc(Oc5nc(C(=O)NC(C)(C)C)cs5)cc4F)ncnc3cc2OC)CC1 [Example 15] under Ba/F3-EGFR ins. SVD cells had GI50 of 5.5
